# Tested on: JEG-3
# measurement.description: Primary qHTS to identify gynecologic anti-cancer compounds using libraries of approved drugs and bioactive compounds (AID 1345084); note: % is set by controls: 0 for no effect and ±100 for the full control effect; nearly all actives have a fitted effect of over 55% in size
# condition.set: Gynecologic cancer cell panel viability, ATPlite luminescence, 48 h; series mostly up to 57.5 µM
Records with an inconclusive call do not appear. Calls of active or inactive are those of the source. Calls come from the whole dose curve; as a rule, active = well fitted cell-killing curve with a large enough effect; inconclusive = small, poorly fitted or top-dose-only effect, or effect the other way; inactive = flat fitted curve, though single readings scatter.
parameter.measured: activity change, negative = cytotoxicity

COc1cc(C)c(C(=O)NC2C(C)OC(OC3CCC(C)C4C3C=C(C)C3/C(C)=C\CC/C(C)=C/C5(C)C=C(C(=O)O)C(C)CC56OC(=O)/C(=C(\O)C34C)C6=O)C(O)C2(C)O)c(O)c1 (centres undefined) = 4.16% [at 11.6 µM] (inactive)
Cc1nc2ccccc2c(-c2ccc3c4c(ccnc24)CCO3)c1[C@H](OC(C)(C)C)C(=O)O = inactive
Cc1cn(C[C@H](N)C(=O)O)c(=O)n(Cc2ccsc2C(=O)O)c1=O = inactive
C=C1CC[C@H]2[C@@](C)(CCC(O)[C@@]2(C)CO)[C@@H]1/C=C/C(=C\C(=O)O)C(=O)O (some centres undefined) = inactive

###

# Tested on: NIH3T3
# measurement.description: Cytotoxic Profiling of Annotated Libraries Using Quantitative High-Throughput Screening (AID 1296008); note: % is set by controls: 0 for no effect and ±100 for the full control effect; nearly all actives have a fitted effect of over 60% in size
# condition.set: Five cell lines viability, CellTiter-Glo ATP luminescence, 48-72 h; hits give low values
# Method: Cell-based phenotypic screening is a commonly used approach to discover biological pathways, novel drug targets, chemical probes and high-quality hit-to-lead molecules. […] A pintool (Kalypsys) was used to transfer 23 nL of compound solution to the 1536-well assay plates. […] Plates were left at room temperature for 10 min before imaging the ATP-coupled luminescence using a ViewLux microplate imager (PerkinElmer, Waltham, MA).
Results filed as inconclusive are left out.
For each of the compounds below, state its max response.
Answers are plain numbers, in %.

# example entries with known answers
COC1OC(O)C2(CCC3(O2)C(C)CC2OC(=O)C4(C)CCCC3(C)C24)C1O (configuration not stated) = 1.38
Cc1oc(S(=O)(=O)N2CCCCC2)cc1NC(=O)Nc1ccccc1 = -1.71
CC1CCC23COC(=O)C2=CC(O)CC3C1(C)CCc1ccoc1 (configuration not stated) = -7.2
O=C(/C=C/c1ccc(O)cc1)OCC1OC(O)C(OC2OC(CO)C(O)C(O)C2O)C(O)C1O (configuration not stated) = 3.74
COc1cc(OC)cc(-c2ccc3c(-c4ccc(F)cc4)[nH]nc3n2)c1 = 0.976
COc1c(O[C@@H]2O[C@H](CO)[C@@H](O)[C@H](O)[C@H]2O)c(CCC(=O)O)cc2ccoc12 = 0.4

Go through the items and report each one's max response.
1. C=C(C)[C@@H]1CC[C@]2(C(=O)O)CC[C@]3(C)[C@H](CCC4[C@@]5(C)CCC(=O)C(C)(C)C5C(O)C[C@]43C)C12 (some centres not stated)
2. O=C(c1c2ccccc2cc2ccccc12)N1CCC(N2CCC[C@@H](C(=O)N3CCOCC3)C2)CC1
3. CC1(C)C(=O)CCC2(C)C1C(O)C=C1COC(=O)C12O (configuration not stated)
4. C=C1C[C@]23C[C@H]1CC[C@H]2[C@]1(C)CC[C@H](O)[C@@](C)(C(=O)O)[C@H]1[C@@H]3C(=O)O
5. COC(=O)[C@]1(C)CCC[C@@]2(C)C(=O)CC[C@H]3C(=O)C=C(CC[C@@H]21)C3O (some centres not stated)
6. O=C1NC(=O)/C(=C/c2cccc(C(F)(F)F)c2)S1
7. CC1(C)CC[C@]2(C(=O)O)CC[C@]3(C)C(=CCC4[C@@]5(C)CC[C@H](O)C(C)(C)C5CC[C@]43C)C2C1 (some centres not stated)

OUTPUT:
-1.28
-3.13
-3.93
2.39
1.41
4.34
-3.2

Quick request: max response for each listed item, please.
1. COc1cccc(C(=O)NCCNc2nc3cc(C)cc(C)c3cc2C#N)c1
2. CC(C)C[C@H](NC(=O)[C@@H]1O[C@H]1C(=O)O)C(=O)NCCCCN=C(N)N
3. CC1OC(OC2C(OC(=O)[C@]34CCC(C)(C)C[C@H]3C3=CCC5[C@@]6(C)CC[C@H](OC7OC(C(=O)O)C(O)C(O)C7O)C(C)(C)C6CC[C@@]5(C)[C@]3(C)CC4O)OC(CO)C2O)C(O)C(O)C1OC1OCC(O)C(O)C1O (some centres not stated)
4. C[C@@H]1O[C@@H](O[C@H]2[C@H](O)[C@@H](O)[C@H](OC[C@H]3O[C@@H](OC(=O)[C@]45CCC(C)(C)C[C@H]4C4=CCC6[C@@]7(C)C[C@@H](O)[C@H](O)[C@@](C)(CO)C7[C@H](O)C[C@@]6(C)[C@]4(C)CC5)[C@H](O)[C@@H](O)[C@@H]3O)O[C@@H]2CO)[C@H](O)[C@H](O)[C@H]1O (some centres not stated)

OUTPUT:
1. -4.31
2. 0.0799
3. -0.0675
4. -2.14
